# assay-name: Mixing with 0.2 M phosphate buffer, light transmittance (660 nm) to evaluate insoluble salt formation
# Type: physicochemical
# test-settings: mixing ratio 0.57 Vol/Vol (aqueous 100 g/L HMB solution/0.2M phosphate buffer pH 6.80)
attribute-measured: Transmittance T % (660 nm) (%)

Look over these answered cases.
CC(C)(O)CC(=O)O.N [Example 7, ammonium HMB nonhydrate]: 100
CC(C)(O)CC(=O)[O-].[K+] [Example 5, potassium HMB nonhydrate]: 100

[1] CC(C)(O)CC(=O)[O-].CC(C)(O)CC(=O)[O-].O.[Ca+2] [Calcium HMB hydrate, reference compound]
[2] CC(C)(O)CC(=O)[O-].[Na+] [Example 2, sodium HMB nonhydrate]
Ask: Lower value of Transmittance T % (660 nm) belongs to which: 1 or 2 ? Mark your answer with the label of the selected entry.
Reply: 1
(1: 0%, 2: 100%)
